Sourced from the kinase profiling compilation of Christmann-Franck et al. (2016)

# studySystem: CDK2 CCNA2 (human) (UniProt P20248+P24941)
# assayMethodText: radiometric filter-binding kinase assay
# testConditions: compound 100.0 µM; ATP 20 µM
recordedMetric: inhibition (%)
The response must be a number in % with no trailing unit.

[in] Reported inhibition for CDK2 CCNA2 (human) (UniProt P20248+P24941), given Cc1cccc(C)c1-c1cn2nc(N)nc2cn1 ?
[out] 17

[in] Another molecule: Nc1cnc2c(-c3c(F)cccc3F)cccn2c1=O
[out] 88

[in] Queued: Nc1nc2cnc(-c3ccccc3)cn2n1
[out] 54

----------
# System: RPS6KB1 (human), P23443 [T412E]
# Sequence (P23443 whole entry T412E, looked up): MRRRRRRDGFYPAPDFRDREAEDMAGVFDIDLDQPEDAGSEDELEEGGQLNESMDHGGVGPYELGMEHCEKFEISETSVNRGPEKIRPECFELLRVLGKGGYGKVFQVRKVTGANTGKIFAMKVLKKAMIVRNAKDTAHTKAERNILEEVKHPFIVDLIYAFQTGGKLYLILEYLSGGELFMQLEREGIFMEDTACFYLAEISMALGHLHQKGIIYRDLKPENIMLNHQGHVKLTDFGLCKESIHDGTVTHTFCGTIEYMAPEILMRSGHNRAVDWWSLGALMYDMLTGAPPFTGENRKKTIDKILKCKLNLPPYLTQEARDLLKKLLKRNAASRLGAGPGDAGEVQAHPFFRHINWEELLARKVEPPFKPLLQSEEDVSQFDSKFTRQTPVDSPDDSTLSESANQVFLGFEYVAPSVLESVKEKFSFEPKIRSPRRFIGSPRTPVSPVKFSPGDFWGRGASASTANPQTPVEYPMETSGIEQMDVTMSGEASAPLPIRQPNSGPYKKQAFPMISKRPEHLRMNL
# assayMethodText: radiometric filter-binding kinase assay
# testConditions: compound 100.0 µM; ATP 20 µM
recordedMetric: inhibition (%)
Just the number in %, nothing appended.

[in] Hi! What's the reported inhibition for O=C(Nc1cnc2[nH]ccn2c1=O)c1ccccc1 on RPS6KB1 (human), P23443 [T412E]?
[out] 4

[in] Next entry: O=c1c(NC(=S)NCc2ccccc2)cnc2[nH]ccn12
[out] 9

[in] Proceed to CC(C)(C)Nc1c(COCc2ccccc2)nc2[nH]cnn12
[out] 0

[in] Try this compound next: COc1ccc(-c2cc3c(=O)[nH]cnc3s2)cc1OC
[out] 30

[in] Then CC(C)(C)Nc1c(C2CC2)nc2[nH]cnn12 ?
[out] 0

[in] Another: Nc1cnc2c(-c3c(F)cccc3F)cccn2c1=O
[out] 0

[in] And O=C(Nc1cnc2[nH]cnn2c1=O)c1ccccc1 ?
[out] 0

[in] Would you kindly repeat that for O=c1cc(-c2ccccc2F)nc2[nH]ccn12 ?
[out] 8

[in] Also O=C(c1cccc(-c2cc3c(=O)[nH]cnc3s2)c1)N1CCOCC1 ?
[out] 34

[in] Now the compound CC1CN(c2nc3ccccn3c(=O)c2N)CC(C)O1 (stereo not given)
[out] 0

[in] // query: CC(=O)Nc1nc2cnc(-c3c(C)cccc3C)cn2n1
[out] 0

[in] Then what about the compound CC(=O)Nc1nc2cnc(-c3ccccc3)cn2n1 ?
[out] 5

[in] Same lookup for Nc1nc2cnc(-c3ccccc3)cn2n1 , please.
[out] 9

[in] Subsequent entry: Cc1cccc(C)c1-c1cn2nc(N)nc2cn1
[out] 8

[in] How about COc1ccc(NC(=S)Nc2cnc3[nH]cnn3c2=O)cn1 ?
[out] 0
